assay: viability of PTEN-null HCT116 cells – cell-based, HCT116 clonal line, CellTiter-Glo, pilot screen (AID 824); settings: HCT116 PTEN-deleted viability, 60 h, at 10 µM, stronger effect = lower value;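 also: 0% = 20 µM Hyamine control and 100% = vehicle cell control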
Inconclusive results are not listed.
Please go through the items and note down their viability.
Field: numeric (%). Do not append units.

Summary for this molecule, O=C1CCCC2=C1C(c1cccnc1)Nc1ccccc1N2 (stereo not given) : viability is 99.2

Noted for `Cn1c(O)c(C=NCCOc2ccc(Cl)cc2)c(=O)n(C)c1=O` : its viability reads 93.7

For this molecule ( O=C(O)C1CN2CCC1CC2 (stereo not given) ), measured viability is 93.3

viability reported for this molecule `COP(=S)(OC)SCN1C(=O)c2ccccc2C1=O` : 84.9

Kindly note the recorded viability for `Cc1ccc(CC2C(=O)N(C)C(=O)N(C)C2=O)s1` , which is 99.6

Entry `CC(C)NS(=O)(=O)c1ccc(OCC(=O)N2CCN(C)CC2)cc1` , viability reported as 102

For this molecule ( `O=c1c2ccccc2nc(-c2ccco2)n1-c1ccncc1` ), measured viability is 97.2

The molecule listed as `CCOC(=O)c1c(C)n(Cc2ccco2)c2ccc(OC)cc12` shows viability equal to 85.8

viability reported for this molecule `Cn1c(O)c(C=NCCc2c[nH]c3ccccc23)c(=O)n(C)c1=O` : 91.4

viability for `O=C1CC(=O)N(c2ccc(Cl)cc2Cl)C(=O)N1` is 91.2

The molecule listed as CC12CCC(=O)C=C1CCC1C2CCC2(C)C(O)CCC12 (stereo not given) has a reported viability of 94

// field: viability; key: `CN1C(=O)C(Cc2cccs2)C(=O)N(C)C1=O` ; value = 98.9

viability for `CCOC(=O)C1CCN(/C=C2/C(=O)NC(=O)N(c3ccc(OCC)cc3)C2=O)CC1` is 97.5

Noted for `COc1ccccc1/C=C1/C(=N/O)C2CCN1CC2` : its viability reads 99.4

Reported viability for O=C(CN1CC(c2ccccc2)CC1=O)Nc1cccc(F)c1 (stereo not given) was 96.5

----------
molecular target: Pantothenate synthetase (Mycobacterium tuberculosis (strain ATCC 25618 / H37Rv)); assay: Coupled enzyme confirmation of inhibitors against recombinant Mtb PanC (AID 375); settings: coupled enzyme assay; at 10 µM, stronger effect = higher value;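 also: 0% = full reaction with vehicle and 100% = no enzyme background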
Returns T if the recorded inhibition is greater than or equal to 1%, and F otherwise.

IN: Could you tell me if the measured inhibition of `Cc1cccnc1-n1c(CCN2C(=O)c3ccccc3C2=O)nc2ccccc2c1=O` reaches 1% or more?
OUT: T

IN: Reported inhibition at or above 1%? CC(c1ccco1)N(C(=O)COc1ccc(Cl)cc1Cl)c1ccccn1 (configuration not stated)
OUT: T

IN: Decide: inhibition of `COc1cccc(NC(=O)Cc2nnc(SCC(=O)c3ccccc3)n2C)c1` >= 1%?
OUT: F

IN: Identify whether the reported inhibition of the following molecule is 1% or greater: `CC(C)(C)C1=Nn2c(nnc2-c2n[nH]c3c2CCC3)SC1`
OUT: T

IN: Please indicate if the recorded inhibition for COc1ccc(C2=NOC(C(=O)Nc3cc(Br)ccc3O)C2)cc1OC (configuration not stated) meets or exceeds 1%.
OUT: T

IN: Please indicate if the recorded inhibition for CC(C)CC(OC(=O)c1cccs1)C(=O)NCc1ccco1 (configuration not stated) meets or exceeds 1%.
OUT: F

IN: Decide: is the reported value of inhibition for `COc1ccc(CN2CCN(C(=O)Cc3ccccc3)CC2)c(OC)c1` equal to or greater than 1%?
OUT: F

IN: Please indicate if the recorded inhibition for `COc1ccc(OC)c2[nH]c(=O)c(CCNC(=O)C(C)C)cc12` meets or exceeds 1%.
OUT: F

IN: Could you tell me if the measured inhibition of `CCOC(=O)c1nnc2cc(-c3ccc(Br)cc3)nn2c1C` reaches 1% or more?
OUT: F

IN: Answer whether inhibition of `CC(C)C(=O)Nc1ccc2c(c1)nc1n2CCSC1` is greater than or equal to 1%.
OUT: F

IN: Evaluate `CCOC(=O)c1ccccc1NC(=O)CSc1nccn1C` : inhibition at minimum 1%?
OUT: F

IN: Is reported inhibition greater than or equal to 1% here: `O=C(Nc1cccc(OCC(=O)N2CCOCC2)c1)C1CCCCC1`
OUT: F

IN: Is it the case that `CS(=O)(=O)N1CCN(c2ccccc2NC(=O)c2cccs2)CC1` has inhibition reaching or exceeding 1%?
OUT: T

IN: Say whether `Cc1cnc(NC(=O)C2=C(O)c3ccccc3S(=O)(=O)N2C)s1` shows inhibition of 1% or more.
OUT: F
